Listed molecules paired with reported TGI
Test system: ACHN renal
Assay: NCI tumour cell line growth inhibition, 48 h

CC(C)=CCC[C@@H](C)c1c2[nH]c3ccccc3sc-2c(C)c(=O)c1=O | 10.8 µM

Item: C/C(=N\Nc1ccccc1)C(CN(C)C)C(c1ccccc1)c1c(O)c2ccccc2oc1=O (stereo not given) | System: ACHN renal | TGI: > 100 µM

Item: O=[N+]([O-])/C=C/c1cn(CCCCCn2cc(/C=C/[N+](=O)[O-])c3ccccc32)c2ccccc12 | System: ACHN renal | TGI: 13.9 µM

Item: O=C(/C=C/c1cn(-c2ccccc2)nc1-c1ccc([N+](=O)[O-])cc1)c1ccc(Cl)cc1 | System: ACHN renal | TGI: > 43.6 µM

----------
Test system: A498 renal
Assay: NCI tumour cell line growth inhibition, 48 h
measuredQuantity: TGI

Please review the following examples before continuing.
C=CCOC(=O)CCCCCCCCCCCCCCCOC(=O)C1=C(CCC[C@@H](C)O[Si](C)(C)C(C)(C)C)NC(=O)N2[C@H](CC3(CC/C=C\[C@H](CC)O[Si](C(C)C)(C(C)C)C(C)C)OCCO3)CC[C@H]12 | > 100 µM
Cc1ccc2c(c1)CC1(C2=O)[C@H](c2ccccc2)C2C(=O)c3ccc(C)cc3C2[C@H]1c1ccccc1 (stereo not given in full) | > 100 µM

Notebook: C/C(=C\Cc1cc(O)ccc1O)CCc1c(C)cc(O)c(C=O)c1C , TGI read as > 100 µM

Notebook: COc1ccc(/C=C(/C(=O)n2cnnn2)c2cc(OC)c(OC)c(OC)c2)cc1 , TGI read as > 100 µM

Notebook: N#CCCC1(CCC#N)CCCCCCC(CCC#N)(CCC#N)C(O)C1O (stereo not given) , TGI read as > 100 µM

Notebook: CCOC(=O)C1CCCCc2sc(N)c(C#N)c21 (stereo not given) , TGI read as > 100 µM

Notebook: Cc1n(Cc2ccc3ccccc3c2)c(Cl)c(Cl)[n+]1Cc1ccc2ccccc2c1 , TGI read as 4.57 µM

----------
Listed compounds paired with reported GI50
Test system: HS 578T breast
Assay: NCI tumour cell line growth inhibition, 48 h

Please review the following examples before continuing.
Nc1ncnc2c1c(-c1ccc(Oc3ccccc3)cc1)nn2C[C@@H]1SSC[C@@H]1O | 2.02 µM
CCCCCCOc1ccc(C(=N)N(CCCC)CCCC)c2ccccc12 | 1.61 µM
C/C(=N\n1c(N)c(C#N)c(-c2ccc(Cl)cc2)c(C#N)c1=O)c1ccncc1 | 6.4 µM
C=CC(=O)Nc1cccc(Nc2nc(Nc3ccc(OCCOC(F)F)cc3)ncc2F)c1 | 2.13 µM

Here is another compound to look at.
Notebook: CCCn1cnc2c(SCc3ccccc3)nc(N)nc21 , GI50 read as > 100 µM

----------
Tested on: SK-MEL-5 melanoma
Assay: NCI tumour cell line growth inhibition, 48 h
measuredQuantity: TGI (µM)
The figure you give is taken to be in µM; do not add the unit.

CCC(=O)c1cc([N+](=O)[O-])c(Br)s1 | 30.4

Notebook: COc1cc2nnn3c4ncccc4c(N=O)c3c2cc1OC , TGI read as 34

Notebook: O=C1C=C(N2CCN(c3ccccn3)CC2)C(=O)c2c(O)ccc(O)c21 , TGI read as 4.5

Notebook: Cc1n(Cc2ccc3ccccc3c2)c(Cl)c(Cl)[n+]1Cc1ccc2ccccc2c1 , TGI read as 3.08

Notebook: Cc1cc([N+](=O)[O-])c(S(=O)(=O)c2ccccc2)c([N+](=O)[O-])c1 , TGI read as 27.8

Notebook: COC(=O)n1c(C[P+](c2ccccc2)(c2ccccc2)c2ccccc2)cc2ccccc21 , TGI read as 3.93

Notebook: CCN(CC)CCN(C)CCc1ccc(Br)cc1 , TGI read as 33.6

Notebook: CCCCCCOc1ccc(C(=N)N(CCCC)CCCC)c2ccccc12 , TGI read as 2.85

Notebook: C[C@@H]1C/C=C\C(=O)O[C@H](/C=C/C#C/C=C/C(C)(C)[C@@H](O)c2cccc(O)c2Br)[C@@H](C)/C=C/[C@H](C)C[C@H](OC(N)=O)C1 , TGI read as 0.0354

Notebook: CNc1ccc(S(=O)Nc2ccccc2)cc1 (stereo unspecified) , TGI read as 91.1

Notebook: COc1ccc(-c2cc(/C=C/C(=O)c3cc(OC)c(OC)c(OC)c3)[nH]n2)cc1OC , TGI read as 2.93

Notebook: C=CC(=O)Nc1cccc(Nc2nc(Nc3ccc(OCCOC(F)F)cc3)ncc2F)c1 , TGI read as 15.1

Notebook: CC(C)=CCC[C@@H](C)c1c2[nH]c3ccccc3sc-2c(C)c(=O)c1=O , TGI read as 19.7

----------
Tested on: MDA-MB-231 breast
Test: NCI tumour cell line growth inhibition, 48 h; in the data active means GI50 below about 0.43 µM; inactive means the rest
One label from this list, please: active, inactive

Illustrative cases are given below, each with its answer.
Cc1n(Cc2ccc3ccccc3c2)c(Cl)c(Cl)[n+]1Cc1ccc2ccccc2c1 | inactive
COc1ccc(C2ONC3=NCCN32)cc1 (stereo not drawn) | inactive
COc1ccc2[nH]c(-c3ccccc3)cc2c1 | inactive
C=C(CNCCc1ccc(O)cc1)[C@@H]1CC[C@]2(CO)CC[C@]3(C)[C@H](CC[C@@H]4[C@@]5(C)CCC(N)C(C)(C)[C@@H]5CC[C@]43C)[C@@H]12 (stereo partly drawn) | inactive

Give the logged outcome of this assay for the following molecule: O=C(Nc1ccc(Cl)cc1)Nc1ccccc1CNc1nc(Nc2ccc(OCCN3CCCC3)cc2)ncc1Cl
inactive

Give the logged outcome of this assay for the following molecule: COc1cc(-n2cc(-c3cc(O)c(C/C=C(\C)CCC=C(C)C)c(O)c3)nn2)cc2c1O[C@]1(C)CC[C@@H](O)C(C)(C)[C@H]1C2
active

Give the logged outcome of this assay for the following molecule: c1ccc(CC(NCCNC(Cc2ccccc2)c2ccccc2)c2ccccc2)cc1 (stereo not drawn)
active

----------
Test system: EKVX NSCLC
Test: NCI tumour cell line growth inhibition, 48 h
Listed compounds paired with reported log10 of TGI
Scale: log10; quantity: TGI; unit before log: µM

Please review the following examples before continuing.
CC[C@@]1(O)C(=O)OCc2c1cc1n(c2=O)Cc2cc3c(N)cccc3nc2-1 | 0.90
CC(c1ccccc1)N1CC(C)(c2ccccc2)N(O)C(c2ccccc2)C1C (stereo not given) | 1.79

Here is another compound to look at.
Notebook: O=C(Nc1ccccc1O)c1ccc(CNC(=O)c2ccsc2Nc2ccnc(C(F)(F)F)c2)cc1 , log10 of TGI read as 1.16

----------
Listed compounds paired with reported GI50
System: M14 melanoma
Assay: NCI tumour cell line growth inhibition, 48 h

Please review the following examples before continuing.
Nc1ccn([C@@H]2C(F)=C(CO)[C@@H](O)[C@H]2O)c(=O)n1 | 859 nM
CCCn1cnc2c(SCc3ccccc3)nc(N)nc21 | > 100000 nM
NC(N)=N/N=C/c1c(-c2ccc(Cl)c([N+](=O)[O-])c2)nc2n1CCS2 | 15400 nM
O=C(Cc1ccc(/C=C/C(=O)c2ncc[nH]2)cc1)Nc1ccc(C(F)(F)F)cc1 | 2580 nM

Item: Cc1cc(NC(=O)NC(=O)c2ccccc2N(C)C)ccc1Oc1ncc(Br)cn1 | System: M14 melanoma | GI50: 428 nM

Item: C=CC(=O)Nc1cccc(Nc2nc(Nc3ccc(OCCOC(F)F)cc3)ncc2F)c1 | System: M14 melanoma | GI50: 2540 nM

Item: CCN(CC)CCOc1ccc(/C=C2\CC3C4CC=C5C[C@@H](OC(C)=O)CC[C@]5(C)C4CC[C@]3(C)C2=O)cc1OC (some centres not stated) | System: M14 melanoma | GI50: 2090 nM

----------
Tested on: NCI-H460 lung
Assay: NCI tumour cell line growth inhibition, 48 h
measuredQuantity: TGI

Please review the following examples before continuing.
C[C@@]12CCCC(=O)N1[C@@H](CO)C(c1ccccc1)O2 (stereo partly drawn) | > 100 µM
C=CCOC(=O)CCCCCCCCCCCCCCCOC(=O)C1=C(CCC[C@@H](C)O[Si](C)(C)C(C)(C)C)NC(=O)N2[C@H](CC3(CC/C=C\[C@H](CC)O[Si](C(C)C)(C(C)C)C(C)C)OCCO3)CC[C@H]12 | > 100 µM
Nc1ccn([C@@H]2C(F)=C(CO)[C@@H](O)[C@H]2O)c(=O)n1 | > 100 µM
COc1ccc(C(=O)C[C@]2(O)C(=O)Nc3c(Cl)ccc(Cl)c32)cc1 | > 53.5 µM
CC(=O)[CH-]C(=O)c1ccccc1.CC(=O)[CH-]C(=O)c1ccccc1.[CH2-]CCC.[CH2-]CCC.[Sn+4] | 4.62 µM

Notebook: COC1=CC(=O)C2=C(C1=O)[C@H]1CC[C@]3(C)[C@@H](OC(C)=O)CC[C@H]3[C@@H]1CC2 , TGI read as > 100 µM

Notebook: Cc1n(Cc2ccc3ccccc3c2)c(Cl)c(Cl)[n+]1Cc1ccc2ccccc2c1 , TGI read as 3.2 µM

Notebook: COc1ccc(/C=C(/C(=O)n2cnnn2)c2cc(OC)c(OC)c(OC)c2)cc1 , TGI read as > 100 µM
